# assayed-target: human calpain 9 (Homo sapiens)
# Construct: human calpain 9, residues 27-347, was over expressed in E. coli BL21 (DE3); hexa-histidine (N); made in house; host or cells: E. coli BL21 (DE3)
# Sequence (O14815 27-347): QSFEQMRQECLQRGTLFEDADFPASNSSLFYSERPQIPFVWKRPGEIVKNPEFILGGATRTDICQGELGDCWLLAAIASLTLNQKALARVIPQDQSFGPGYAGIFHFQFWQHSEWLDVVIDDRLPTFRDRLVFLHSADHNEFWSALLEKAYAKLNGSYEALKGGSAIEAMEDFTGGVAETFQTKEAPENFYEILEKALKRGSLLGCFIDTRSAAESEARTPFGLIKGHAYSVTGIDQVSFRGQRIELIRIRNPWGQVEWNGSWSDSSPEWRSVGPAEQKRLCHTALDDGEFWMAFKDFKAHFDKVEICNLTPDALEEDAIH
# run-description: Calpain binding: crystal structure interaction distances, human calpain 9
# condition-context: polar interactions with human calpain 9
assay-metric: Interaction Distances R^11-Gly190 (Å)

NC(=O)C(=O)[C@H](Cc1ccccc1)NC(=O)c1snnc1-c1ccccc1 [Compound 44] ... 3.2
Cn1cc(C(=O)N[C@@H](Cc2ccccc2)C(=O)C(N)=O)c(-c2ccccc2)n1 [Compound 32] ... 2.9
CCCC[C@H](NC(=O)c1oc(C)nc1-c1ccccc1)C(=O)C(N)=O [Compound 265] ... 3.2
NC(=O)C(=O)[C@H](Cc1ccccc1)NC(=O)c1nsnc1-c1ccccc1 [Compound 72] ... 2.9

* * *

# assayed-target: Human Calpain 1/NS1 (Homo sapiens)
# Sequence (P07384 whole entry): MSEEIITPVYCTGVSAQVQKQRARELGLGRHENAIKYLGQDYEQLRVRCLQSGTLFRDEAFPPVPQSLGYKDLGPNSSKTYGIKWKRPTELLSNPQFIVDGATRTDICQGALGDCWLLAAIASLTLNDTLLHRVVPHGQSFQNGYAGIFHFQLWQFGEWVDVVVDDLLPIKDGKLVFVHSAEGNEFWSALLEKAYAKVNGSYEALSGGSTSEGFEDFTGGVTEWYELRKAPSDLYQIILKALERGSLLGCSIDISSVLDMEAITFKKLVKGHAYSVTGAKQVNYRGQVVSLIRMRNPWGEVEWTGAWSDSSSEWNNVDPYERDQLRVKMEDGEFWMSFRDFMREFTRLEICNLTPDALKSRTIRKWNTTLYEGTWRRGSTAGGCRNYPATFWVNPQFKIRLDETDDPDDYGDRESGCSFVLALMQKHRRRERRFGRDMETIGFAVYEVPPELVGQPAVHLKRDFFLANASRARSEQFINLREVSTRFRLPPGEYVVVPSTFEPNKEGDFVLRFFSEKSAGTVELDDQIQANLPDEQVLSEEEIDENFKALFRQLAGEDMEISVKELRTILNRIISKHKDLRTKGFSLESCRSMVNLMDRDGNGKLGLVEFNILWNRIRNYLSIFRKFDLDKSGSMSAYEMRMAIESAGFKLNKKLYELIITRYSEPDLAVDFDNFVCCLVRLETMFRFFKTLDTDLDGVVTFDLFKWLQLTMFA
# Sequence (P04632 whole entry partner): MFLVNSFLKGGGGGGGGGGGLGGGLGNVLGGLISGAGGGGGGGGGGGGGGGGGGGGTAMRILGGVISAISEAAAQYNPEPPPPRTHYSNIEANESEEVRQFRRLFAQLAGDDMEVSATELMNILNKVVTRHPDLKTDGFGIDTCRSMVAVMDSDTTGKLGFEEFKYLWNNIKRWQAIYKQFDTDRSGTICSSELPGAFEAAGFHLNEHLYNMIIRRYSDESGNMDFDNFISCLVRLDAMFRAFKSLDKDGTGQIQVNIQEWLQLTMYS
# run-description: Calpain inhibition continuous fluorescence (FRET) assay, Human Calpain 1/NS1
# Type: biochemical
# condition-context: Column A; read-out: Human Calpain 1/NS1 IC50
pIC50: −log10 of the molar value.
assay-metric: pIC50

Lookup: Return pIC50 for the following molecule: Cc1ccc(-c2nn(C)cc2C(=O)N[C@@H](Cc2ccccc2)C(=O)C(N)=O)cc1
Found: > 5.52

Lookup: Report pIC50, nothing else, for this molecule: NC(=O)C(=O)[C@H](Cc1ccccc1)NC(=O)c1cn(CC2CC2)nc1-c1ccccc1
Found: > 5.52

Lookup: Provide measured pIC50 value, entry: O=C(NC1CC1)C(=O)[C@H](Cc1ccccc1)NC(=O)c1cncn1-c1ccc(-c2ncco2)cn1
Found: > 5.52

Lookup: Give the value of pIC50 reported for the following: Cc1cc(C(=O)N[C@@H](Cc2ccccc2)C(=O)C(N)=O)n(-c2ccc(-c3ccccc3C)cc2)n1
Found: > 5.52

Lookup: Read off the recorded pIC50 for Cc1noc(-c2ccccc2)c1C(=O)N[C@@H](Cc1c[nH]c2ccccc12)C(=O)C(N)=O
Found: > 5.52

Lookup: Specify measured pIC50 for Cn1cc(C(=O)N[C@@H](Cc2ccccc2)C(=O)C(N)=O)c(-c2cccc(C(F)(F)F)c2)n1 .
Found: > 5.52

* * *

# assayed-target: Human Calpain 2/NS1 (Homo sapiens, UniProt P17655)
# Sequence (P17655 whole entry): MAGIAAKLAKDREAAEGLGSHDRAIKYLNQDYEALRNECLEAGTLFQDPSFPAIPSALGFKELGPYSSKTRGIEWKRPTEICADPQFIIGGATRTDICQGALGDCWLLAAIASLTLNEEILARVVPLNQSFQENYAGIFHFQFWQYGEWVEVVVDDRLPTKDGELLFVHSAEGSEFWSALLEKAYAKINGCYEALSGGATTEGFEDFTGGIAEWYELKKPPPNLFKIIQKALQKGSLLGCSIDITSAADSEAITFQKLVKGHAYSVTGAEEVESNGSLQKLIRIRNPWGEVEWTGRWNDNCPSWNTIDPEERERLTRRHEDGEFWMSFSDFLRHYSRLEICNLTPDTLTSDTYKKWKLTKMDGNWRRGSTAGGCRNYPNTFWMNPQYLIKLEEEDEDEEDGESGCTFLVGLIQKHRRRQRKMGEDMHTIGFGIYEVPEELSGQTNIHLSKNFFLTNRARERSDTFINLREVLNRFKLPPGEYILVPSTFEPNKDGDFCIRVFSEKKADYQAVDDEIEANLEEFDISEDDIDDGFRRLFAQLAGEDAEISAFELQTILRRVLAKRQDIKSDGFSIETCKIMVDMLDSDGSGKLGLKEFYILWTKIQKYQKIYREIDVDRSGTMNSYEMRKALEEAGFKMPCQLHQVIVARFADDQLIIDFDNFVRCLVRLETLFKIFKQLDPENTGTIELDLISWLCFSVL
# Sequence (P04632 whole entry partner): as the sequence (P04632 whole entry partner) above
# run-description: Calpain inhibition continuous fluorescence (FRET) assay, Human Calpain 2/NS1
# Assay type: biochemical
# condition-context: Column B; read-out: Human Calpain 2/NS1 IC50
Below: a set of entries, each annotated with reported IC50.

Cc1noc(-c2ccccc2)c1C(=O)N[C@@H](Cc1ccccc1)C(=O)C(=O)NCc1cccnc1 ... 3 to 10 µM
Cc1nc(-c2ccccc2)c(C(=O)N[C@@H](Cc2ccccc2)C(=O)C(=O)NC2CC2)s1 ... < 3 µM
CC[C@H](NC(=O)c1c(C)noc1-c1ccccc1)C(=O)C(N)=O ... < 3 µM
Cc1ncn(-c2ccccc2)c1C(=O)N[C@@H](Cc1ccccc1)C(=O)C(N)=O ... < 3 µM
NC(=O)C(=O)[C@H](Cc1ccccc1)NC(=O)c1[nH]ncc1-c1ccccc1 ... > 10 µM
CC(=O)NCc1ccc(-n2nc(C)cc2C(=O)N[C@@H](Cc2ccccc2)C(=O)C(N)=O)cc1 ... < 3 µM

Lookup: For Human Calpain 2/NS1 (Homo sapiens, UniProt P17655), give IC50 of the listed compound: O=C(NC1CC1)C(=O)[C@H](Cc1ccccc1)NC(=O)c1cncn1-c1nc2ccccc2[nH]1
Found: 3 to 10 µM

Lookup: Enter IC50 (test system Human Calpain 2/NS1 (Homo sapiens, UniProt P17655)) for CCOCc1ccc(-n2nc(C)cc2C(=O)N[C@@H](Cc2ccccc2)C(=O)C(N)=O)cc1
Found: < 3 µM

Lookup: Write down the reported IC50 (system: Human Calpain 2/NS1 (Homo sapiens, UniProt P17655)) of Cn1ncc(C(=O)N[C@@H](Cc2ccccc2)C(=O)C(N)=O)c1-c1cncnc1
Found: < 3 µM

Lookup: Please look at Cc1cc(C(=O)N[C@@H](Cc2ccccc2)C(=O)C(N)=O)n(-c2ncc(-c3ccccc3)s2)n1 and tell me its recorded IC50 on Human Calpain 2/NS1 (Homo sapiens, UniProt P17655).
Found: < 3 µM

Lookup: Fill: IC50 (Human Calpain 2/NS1 (Homo sapiens, UniProt P17655)) for this compound NC(=O)C(=O)[C@H](Cc1ccccc1)NC(=O)c1oc(C(F)(F)F)nc1-c1ccccc1
Found: < 3 µM

Lookup: Give IC50 for this entry on Human Calpain 2/NS1 (Homo sapiens, UniProt P17655): N#Cc1cc(C(=O)N[C@@H](Cc2ccccc2)C(=O)C(N)=O)nn1-c1ccccc1
Found: < 3 µM

Lookup: Provide measured IC50 on Human Calpain 2/NS1 (Homo sapiens, UniProt P17655) for NC(=O)C(=O)C(Cc1ccccc1)NC(=O)c1c(Cl)cnn1-c1ccccc1 (centres unmarked) please.
Found: < 3 µM

Lookup: Fetch value of IC50 on Human Calpain 2/NS1 (Homo sapiens, UniProt P17655) for Cc1cc(C(=O)N[C@@H](Cc2ccccc2)C(=O)C(N)=O)n(-c2ccc3ccccc3n2)n1 .
Found: < 3 µM

Lookup: Provide IC50, recorded with Human Calpain 2/NS1 (Homo sapiens, UniProt P17655), of O=C(NC1CC1)C(=O)[C@H](Cc1ccccc1)NC(=O)c1nn[nH]c1-c1ccccc1
Found: > 10 µM

Lookup: Tell me IC50 of O=C[C@H](Cc1ccccc1)NC(=O)c1csnc1-c1ccccc1 when tested on Human Calpain 2/NS1 (Homo sapiens, UniProt P17655).
Found: < 3 µM

Lookup: Answer with IC50 of O=C(NC1CC1)C(=O)[C@H](Cc1ccccc1)NC(=O)c1sc(C2CC2)nc1-c1ccccc1 measured for Human Calpain 2/NS1 (Homo sapiens, UniProt P17655).
Found: < 3 µM

Lookup: // output IC50; input NC(=O)C(=O)C(Cc1ccccc1)NC(=O)c1ccnn1Cc1ccccc1 (centres unmarked) ; system Human Calpain 2/NS1 (Homo sapiens, UniProt P17655)
Found: < 3 µM

Lookup: State IC50 (Human Calpain 2/NS1 (Homo sapiens, UniProt P17655)) of Cc1cc(C(=O)N[C@H](C=O)Cc2ccccc2)nn1-c1ccccc1 .
Found: 3 to 10 µM

Lookup: State IC50 (Human Calpain 2/NS1 (Homo sapiens, UniProt P17655)) of O=C[C@H](Cc1ccccc1)NC(=O)c1scnc1-c1ccccc1 .
Found: < 3 µM

Lookup: Check Human Calpain 2/NS1 (Homo sapiens, UniProt P17655) data and give IC50 for Cc1noc(-c2ccccc2)c1C(=O)N[C@@H](Cc1ccccc1)C(=O)C(=O)NCc1cccc(OC(F)(F)F)c1 .
Found: > 10 µM

Lookup: Report IC50 on Human Calpain 2/NS1 (Homo sapiens, UniProt P17655) for this entry: Cc1cc(C(=O)N[C@@H](Cc2ccccc2)C(=O)C(=O)NC2CC2)n(-c2ncccc2C)n1
Found: > 10 µM

Lookup: Please tell me the measured IC50 for Cc1ccc(-c2ccc(-n3nc(C)cc3C(=O)N[C@@H](Cc3ccccc3)C(=O)C(N)=O)cc2)cc1 ; system: Human Calpain 2/NS1 (Homo sapiens, UniProt P17655).
Found: < 3 µM

Lookup: Give IC50 only, for NC(=O)C(=O)[C@H](Cc1ccccc1)NC(=O)c1cncn1-c1cc(-c2ncco2)ccn1 , using Human Calpain 2/NS1 (Homo sapiens, UniProt P17655) data.
Found: < 3 µM

Lookup: Fill in IC50 for COc1cccc(-c2nn(C)cc2C(=O)N[C@@H](Cc2ccccc2)C(=O)C(N)=O)c1 tested with Human Calpain 2/NS1 (Homo sapiens, UniProt P17655).
Found: < 3 µM

Lookup: Enter measured IC50, system Human Calpain 2/NS1 (Homo sapiens, UniProt P17655), for the compound shown: Cc1cc(C)nc(-n2nc(C)cc2C(=O)N[C@@H](Cc2ccccc2)C(=O)C(N)=O)c1
Found: < 3 µM

Lookup: State IC50 on Human Calpain 2/NS1 (Homo sapiens, UniProt P17655). Entry: Cc1cccc(-n2nc(C)cc2C(=O)N[C@@H](Cc2ccccc2)C(=O)C(N)=O)n1
Found: < 3 µM

Lookup: Report value: IC50, system: Human Calpain 2/NS1 (Homo sapiens, UniProt P17655), compound: O=C[C@H](Cc1ccccc1)NC(=O)c1cncn1-c1ccccn1
Found: < 3 µM

Entry source: patent US11339130B1
